- ASSAYED TARGET: human ether-à-go-go-related gene (hERG) potassium channel (human);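 note: peak tail current of the secondary pulse compared with the same well before compound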
- ASSAY: primary screen, population patch clamp on CHO cells stably expressing hERG; higher = less effect of the substance
Hit rate of the full screen: of about 310,000 compounds, about 14,000 (4.5%) showed an effect of 50% or more. The effect is printed as a negative number. The list comes from a sample in which strong results are over-represented; it also holds close analogues and randomly drawn compounds.
Record form. Attribute: hERG current change (%, negative = inhibition) at 10uM. Fill in for each entry.
One number for each entry, in %.

Would you please look over these solved cases?
| COMPOUND | UNIT SPEC | DATA VALUE |
| --- | --- | --- |
| COc1cccc(C(=O)N2CCN(C(=O)c3cccc(F)c3)CC2)c1 | % | -0.0938 |
| COc1ccc(NC(=S)NCCC(c2ccccc2)c2ccccc2)c(OC)c1 | % | 2.53 |
| COc1ccc(C(CCNCc2ccc(OC(C)C)cc2)c2ccccc2OC)cc1 (stereo not shown) | % | -76 |

For every listed record, write down its hERG current change (%, negative = inhibition) at 10uM.
1. CCOC(=O)C1(CCOc2ccccc2)CCN(Cc2cc(OC)c(O)cc2Cl)CC1
2. CCOC(=O)c1cc2c(=O)n3ccccc3nc2n(CCCOC)c1=NC(C)=O

A.
[-69.2, -27.5]

For every listed record, write down its hERG current change (%, negative = inhibition) at 10uM.
1. O=C1CCC(=O)N1CC(O)COc1ccccc1 (stereo not shown)
2. O=C(Nc1ccc(SC(F)F)cc1)C1CC(=O)N(Cc2ccccc2)C1 (stereo not shown)
3. CCOC(=O)c1cc2c(=O)n3ccccc3nc2n(CCOC)c1=NC(=O)C(C)(C)C
4. COc1ccc(N2CCN(C(=S)NC(=O)c3cccs3)CC2)c([N+](=O)[O-])c1
5. CCCc1nc(C)c2c(=O)[nH]c(-c3cc(S(=O)(=O)N4CCN(CC)CC4)ccc3OCC)nn12.O=C(O)CC(O)(CC(=O)O)C(=O)O
6. CCOC(=O)C1=C(C)OC(N)=C(C#N)C1c1cccs1 (stereo not shown)
7. C=CCNC(=S)NNc1nc(Nc2ccccc2)nc(N2CCCCC2)n1

A.
1: 4.87; 2: -48; 3: -4.45; 4: -47.8; 5: 0.215; 6: 8.62; 7: 10.3

For every listed record, write down its hERG current change (%, negative = inhibition) at 10uM.
1. CCC(=O)N1CCN(c2ccc(OC)cc2[N+](=O)[O-])CC1
2. COc1ccc(C(CCNC(C)c2ccccc2)c2ccc(F)cc2)cc1 (stereo not shown)
3. Cl.OC(COc1ccccc1)CN1C2=NCCCN2c2ccccc21 (stereo not shown)
4. O=C(Nc1cccc(NC(=O)c2ccccc2Cl)c1)c1cccs1

A.
[-19.5, -54.6, -67, 2.54]

----------
Record form. Attribute: hERG current change (%, negative = inhibition) at 10uM. Fill in for each entry.
- ASSAYED TARGET: human ether-à-go-go-related gene (hERG) potassium channel (human);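 note: peak tail current of the secondary pulse compared with the same well before compound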
- ASSAY: primary screen, population patch clamp on CHO cells stably expressing hERG; higher = less effect of the substance
Among all 310,000 compounds or so, about 14,000 (4.5%) showed an effect of 50% or more. Effects have a minus sign here. This is one part of a sample in which strong results are shown more often than they occur.
One number for each entry, in %.

Would you please look over these solved cases?
| COMPOUND | ASSAYED TARGET | DATA VALUE |
| --- | --- | --- |
| CC(C(=O)Nc1ccc(Br)cc1C(=O)c1ccccc1)N1CCOCC1 (stereo not drawn) | human ether-à-go-go-related gene (hERG) potassium channel (human) | -58.6 |
| Cc1ccc(NC(=O)C(C)N2CCOCC2)c(C(=O)c2ccccc2)c1 (stereo not drawn) | human ether-à-go-go-related gene (hERG) potassium channel (human) | -26.9 |
| COc1cccc2cc(/C(=N/O)c3ccc(Br)cc3)oc12 | human ether-à-go-go-related gene (hERG) potassium channel (human) | 5.41 |
| Cc1cc(C)n2cc(CSc3nncn3C)nc2n1 | human ether-à-go-go-related gene (hERG) potassium channel (human) | 17.2 |
| Br.CCCCn1c(=N)n(CC(=O)c2ccc(Br)s2)c2ccccc21 | human ether-à-go-go-related gene (hERG) potassium channel (human) | -52.8 |
| CC(=O)NCCC(=O)Nc1nc(-c2ccccc2Cl)cs1 | human ether-à-go-go-related gene (hERG) potassium channel (human) | -9.76 |
| CSc1nc2ccc(NC(=O)C3CCCO3)cc2s1 (stereo not drawn) | human ether-à-go-go-related gene (hERG) potassium channel (human) | -0.62 |
| O=S(=O)(c1ccc2c(c1)OCCO2)N1CCC(n2nnc3cc(F)ccc32)CC1 | human ether-à-go-go-related gene (hERG) potassium channel (human) | -38.7 |

For every listed record, write down its hERG current change (%, negative = inhibition) at 10uM.
1. CCCn1c(=N)n(CC(=O)c2cccs2)c2ccccc21
2. COc1cccc(-c2nn(Cc3ccccc3)cc2CO)c1
3. CC(NC(=O)C1CCCN(C(=O)c2ccc(Cl)cc2)C1)c1cccc(C(F)(F)F)c1 (stereo not drawn)
4. Cc1cccc(N2CCN(S(=O)(=O)c3c(C(=O)N4CCCCC4)c(C)n(C)c3C)CC2)c1C
5. Br.N=c1n(CC(=O)c2ccc(Br)s2)c2ccccc2n1Cc1ccccc1
6. O=C1CC(c2cccnc2)=NN1c1ccc(Cl)cc1Cl
7. COC(=O)c1[nH]c2c(c1C)C(=O)CC(c1ccc(OC)c(OC)c1)C2 (stereo not drawn)

A.
[-22, 8.47, -51.2, -9.26, -61.7, 12.1, -0.262]

For every listed record, write down its hERG current change (%, negative = inhibition) at 10uM.
1. COc1ccccc1CNC(=O)c1ccccc1C(=O)NC(CC(C)C)C(=O)NCc1ccccc1OC (stereo not drawn)
2. O=C(O)Cn1c(=O)n(Cc2ccccc2)c2ccccc21
3. CC(=O)SC(C)CC(=O)Nc1ccccc1 (stereo not drawn)
4. CCc1noc(C)c1C(=O)Nc1cccc(S(=O)(=O)N(C)c2ccccc2)c1
5. O=C(CCN1CCN(c2ccccc2)CC1)Nc1ccccc1F

A.
[10.6, 23.4, 7.33, -22.1, 8.14]

For every listed record, write down its hERG current change (%, negative = inhibition) at 10uM.
1. Fc1ccccc1NC(=S)N1CCN(C/C=C/c2ccccc2)CC1
2. CCCC12CN3CCN(CC(C3)/C1=N\NC(=O)c1ccccc1N)C2
3. O=C(CN1CCCCC1)NCC(=O)Nc1ccc(Br)cc1C(=O)c1ccccc1
4. COCCOC1CCN(Cc2cn(Cc3ccccc3)nc2-c2cc3ccccc3o2)CC1
5. COC1CCN(Cc2cn(Cc3ccccc3)nc2-c2cc3ccccc3o2)CC1
6. CC(=O)Nc1ccc(NC(=O)C2CCCN(C(=O)c3ccc(Cl)cc3)C2)cc1 (stereo not drawn)
7. O=S(=O)(NC1CCCC1)c1cc(F)ccc1F
8. CCOC(=O)c1[nH]nc2c1C(=O)N(Cc1ccccc1)C2=O

A.
[-23.4, -4.19, -79.1, -67, -71.9, 6.47, -8.75, 6.13]

For every listed record, write down its hERG current change (%, negative = inhibition) at 10uM.
1. CCC(CC)c1nnc(NC(=O)c2c(-c3ccccc3)noc2C)s1
2. Nc1ccccc1C(=O)N/N=C1/C2CN3CCN(C2)CC1(Cc1ccccc1)C3
3. O=C(Nc1ccc(F)cc1)c1cc2ccccc2o1

A.
1: -9.78; 2: -37.8; 3: 20

----------
- ASSAYED TARGET: human ether-à-go-go-related gene (hERG) potassium channel (human, UniProt Q12809);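 note: peak tail current of the secondary pulse compared with the same well before compound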
- Sequence (Q12809 whole entry, looked up): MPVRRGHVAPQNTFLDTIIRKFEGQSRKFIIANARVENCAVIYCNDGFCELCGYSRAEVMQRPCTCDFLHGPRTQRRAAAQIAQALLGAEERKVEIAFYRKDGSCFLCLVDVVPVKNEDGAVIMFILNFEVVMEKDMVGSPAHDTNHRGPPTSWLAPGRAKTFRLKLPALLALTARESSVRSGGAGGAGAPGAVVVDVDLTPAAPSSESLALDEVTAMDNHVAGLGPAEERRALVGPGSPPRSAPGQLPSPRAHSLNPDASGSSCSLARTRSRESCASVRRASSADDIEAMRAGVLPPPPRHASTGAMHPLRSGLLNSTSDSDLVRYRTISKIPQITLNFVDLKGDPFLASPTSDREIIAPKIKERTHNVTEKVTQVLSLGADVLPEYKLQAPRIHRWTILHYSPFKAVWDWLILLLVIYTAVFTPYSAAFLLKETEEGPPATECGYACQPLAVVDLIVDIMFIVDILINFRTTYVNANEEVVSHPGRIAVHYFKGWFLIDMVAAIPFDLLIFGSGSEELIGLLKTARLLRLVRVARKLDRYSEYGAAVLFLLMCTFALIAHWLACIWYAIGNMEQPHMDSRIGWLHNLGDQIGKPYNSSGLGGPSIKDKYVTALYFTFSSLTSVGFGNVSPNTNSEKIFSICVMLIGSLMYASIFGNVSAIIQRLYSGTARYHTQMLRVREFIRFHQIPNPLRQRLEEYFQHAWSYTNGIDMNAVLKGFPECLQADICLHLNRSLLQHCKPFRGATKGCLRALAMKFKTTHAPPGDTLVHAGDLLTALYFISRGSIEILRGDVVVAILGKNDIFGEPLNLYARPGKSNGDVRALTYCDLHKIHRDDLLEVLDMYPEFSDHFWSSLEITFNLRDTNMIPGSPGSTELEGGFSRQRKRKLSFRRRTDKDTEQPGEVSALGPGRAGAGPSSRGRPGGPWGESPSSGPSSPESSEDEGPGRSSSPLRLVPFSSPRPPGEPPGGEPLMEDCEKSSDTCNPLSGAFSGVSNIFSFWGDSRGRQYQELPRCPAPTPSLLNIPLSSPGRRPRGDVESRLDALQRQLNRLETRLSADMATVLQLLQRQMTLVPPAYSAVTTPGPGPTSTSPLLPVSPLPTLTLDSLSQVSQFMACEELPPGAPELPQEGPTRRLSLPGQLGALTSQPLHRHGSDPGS
- ASSAY: primary screen, population patch clamp on CHO cells stably expressing hERG; higher = less effect of the substance
Among all 310,000 compounds or so, about 14,000 (4.5%) showed an effect of 50% or more. The effect is printed as a negative number. Many of the other results were omitted from the sample, so strong results are more common in it than they were.
Record form. Attribute: hERG current change (%, negative = inhibition) at 10uM. Fill in for each entry.
Express the reported value numerically, then name its unit.

| COMPOUND | DATA VALUE |
| --- | --- |
| COC(=O)c1ccc2c(=O)n(Cc3ccc4c(c3)OCO4)c(SCC(=O)N3CCCC3)nc2c1 | -52.4% |
| O=C(NCC1CCCO1)c1ccc2c(=O)n(CC3CCCO3)c(SCC(=O)N3CCCC3)nc2c1 (stereo not shown) | 3.95% |

For every listed record, write down its hERG current change (%, negative = inhibition) at 10uM.
1. O=C(NCc1ccco1)c1ccc2c(=O)n(Cc3ccco3)c(SCC(=O)N3CCCC3)nc2c1
2. CC1CCN(C(=O)CSc2nc3ccccc3c(=O)n2Cc2ccc3c(c2)OCO3)CC1

A.
1. -76.4%
2. -13.6%
